# target_or_system: dCas9 (catalytically deactivated Cas9) (UniProt Q99ZW2)
# Sequence (Q99ZW2 whole entry): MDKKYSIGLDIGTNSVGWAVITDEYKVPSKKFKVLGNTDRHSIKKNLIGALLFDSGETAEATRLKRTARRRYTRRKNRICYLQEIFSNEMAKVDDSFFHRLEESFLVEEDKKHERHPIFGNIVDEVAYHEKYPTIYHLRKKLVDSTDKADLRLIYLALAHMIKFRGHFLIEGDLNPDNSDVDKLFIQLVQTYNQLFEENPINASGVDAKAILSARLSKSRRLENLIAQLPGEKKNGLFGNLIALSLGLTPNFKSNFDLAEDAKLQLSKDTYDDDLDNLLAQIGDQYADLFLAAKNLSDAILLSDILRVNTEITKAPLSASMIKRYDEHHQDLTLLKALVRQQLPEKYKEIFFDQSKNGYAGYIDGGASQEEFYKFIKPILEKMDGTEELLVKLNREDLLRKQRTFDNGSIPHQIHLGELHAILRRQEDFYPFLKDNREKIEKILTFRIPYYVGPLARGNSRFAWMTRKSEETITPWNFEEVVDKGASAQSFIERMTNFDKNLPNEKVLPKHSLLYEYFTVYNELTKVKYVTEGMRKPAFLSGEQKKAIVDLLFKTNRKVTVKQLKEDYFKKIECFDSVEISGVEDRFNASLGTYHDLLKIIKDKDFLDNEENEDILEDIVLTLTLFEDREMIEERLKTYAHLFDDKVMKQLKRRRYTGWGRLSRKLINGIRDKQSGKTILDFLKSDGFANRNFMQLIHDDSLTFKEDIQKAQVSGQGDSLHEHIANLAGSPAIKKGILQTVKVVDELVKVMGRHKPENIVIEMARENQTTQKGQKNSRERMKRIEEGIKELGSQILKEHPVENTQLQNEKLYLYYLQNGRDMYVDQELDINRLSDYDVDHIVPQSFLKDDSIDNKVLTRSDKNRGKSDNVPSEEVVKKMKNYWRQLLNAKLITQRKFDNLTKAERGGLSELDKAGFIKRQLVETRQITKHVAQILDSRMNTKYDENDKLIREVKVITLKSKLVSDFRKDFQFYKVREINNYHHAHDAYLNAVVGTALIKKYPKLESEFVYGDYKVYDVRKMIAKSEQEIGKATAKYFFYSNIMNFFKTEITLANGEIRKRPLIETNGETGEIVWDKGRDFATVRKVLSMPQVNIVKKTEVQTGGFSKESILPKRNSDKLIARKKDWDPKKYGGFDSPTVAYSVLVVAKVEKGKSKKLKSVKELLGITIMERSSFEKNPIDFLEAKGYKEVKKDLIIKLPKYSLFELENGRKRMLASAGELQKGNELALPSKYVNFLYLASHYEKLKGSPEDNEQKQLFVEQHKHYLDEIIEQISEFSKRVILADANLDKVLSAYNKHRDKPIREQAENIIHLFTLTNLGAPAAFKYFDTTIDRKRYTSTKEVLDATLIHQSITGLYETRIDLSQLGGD
# assay_info: magnetic bead pull-down, qPCR
# measurement_context: 2 mM Mg2+; SPR: 2 mM MgCl2, 37 °C, 30 min, 2 µL DNA (up to 1000 ng/µL), dRNP on graphdiyne chip, rinse 2 mM MgCl2; bead assay: 2 mM MgCl2, 37 °C, 1 h; pH not stated
Here the recorded binding signal is given for each entry.
Reply numerically in % captured, unit not repeated.

Use the examples below as a reference point.
chain	binding signal / % captured
GGGUGUAGUAGCCGCCGUCGCGCGUUUUAGAGCUAGAAAUAGCAAGUUAAAAUAAGGCUAGU [sgRNA-GFP-Pos2 + pCDH-GFP-5k amplicon]	99.7
GGGUGCCUGCAGCUCCACACUAGGUUUUAGAGCUAGAAAUAGCAAGUUAAAAUAAGGCUAGU [sgRNA-Mut3 + pUC19-Mut3-0.3k amplicon]	99.8
GGGUGCCUGCAGGUCGCACCUAGGUUUUAGAGCUAGAAAUAGCAAGUUAAAAUAAGGCUAGU [sgRNA-Mut1 + pUC19-Mut1-0.3k amplicon]	89.2
GGGUGCCUGCAGGUCGCACCUAGGUUUUAGAGCUAGAAAUAGCAAGUUAAAAUAAGGCUAGU [sgRNA-Mut1 + pUC19-Mut1-0.8k amplicon]	69.8
GGGUGUAGUAGCCGCCGUCGCGCGUUUUAGAGCUAGAAAUAGCAAGUUAAAAUAAGGCUAGU [sgRNA-GFP-Pos2 + pCDH-GFP-2k amplicon]	99.4

Q: Query (sequence): GGGUGCCUGCAGCUCCACACUAGGUUUUAGAGCUAGAAAUAGCAAGUUAAAAUAAGGCUAGU [sgRNA-Mut3 + pUC19-Mut3-0.8k amplicon] ; field requested: binding signal
Result: 99.8
